# Test system: influenza A H1N1 virus
# assay.text: Antiviral test against influenza A H1N1 in MDCK cells, visual (cytopathic effect)
# Format: cell-based, strain California 07/2009
# condition.parameters: Influenza A virus, H1N1, MDCK
measurement.type: EC50

The examples below pair each entry with its known result.
O=C(NC1C=CC(O)C1)c1ccncc1 (stereo not drawn) [Compound 13c] : > 100 µg/mL
O=C(NC1C=CC(O)CC1)c1cccnc1 (stereo not drawn) [Compound 14b, N-(4-Hydroxycyclohex-2-enyl)nicotinamide] : > 100 µg/mL
O=C(NC1C=CC(O)CC1)c1ccc2ccccc2n1 (stereo not drawn) [Compound 14d] : 37 µg/mL
O=C(NC1C=CC(O)CC1)c1ccncc1 (stereo not drawn) [Compound 14c] : > 100 µg/mL
O=C(NC1C=CC(O)C1)c1ccc2ccccc2n1 (stereo not drawn) [Compound 13d] : > 100 µg/mL
NC(=O)c1ncn([C@@H]2O[C@H](CO)[C@@H](O)[C@H]2O)n1 [Ribavirin, reference compound] : 3.2 µg/mL

Requested read-out: EC50. Entry: O=C(NC1C=CC(O)CC1)c1ccccn1 (stereo not drawn) [Compound 14a, N-(4-Hydroxycyclohex-2-enyl)picolinamide] > 100 µg/mL

Record: O=C(NC1C=CC(O)C1)c1ccccn1 (stereo not drawn) [Compound 13a] > 100 µg/mL

Record: O=C(NC1C=CC(O)C1)c1cccnc1 (stereo not drawn) [Compound 13b] > 100 µg/mL

###

# assay.text: Toxicity (CC50) in the HSV-1 test, HFF cells (crystal violet)
# condition.parameters: human
Reported values of CC50 for individual entries

Nc1nc2c(ncn2COCCO)c(=O)[nH]1 [acyclovir] : > 100 µM

Alright, here's another compound for you.
Requested read-out: CC50. Entry: Nc1ccn(C[C@@H](CO)OCP(=O)(O)O)c(=O)n1 [cidofovir] > 200 µM

###

# Test system: herpes simplex virus 2 (HSV-2)
# assay.text: Antiviral test against HSV-2 in HFF cells (crystal violet)
# Format: cell-based, strain MS
# condition.parameters: Human alphaherpesvirus 2, HFF
measurement.type: pEC50
Conceptually, pEC50 converts a concentration in mol/L into minus its log10.

# value lookup — system herpes simplex virus 2 (HSV-2), readout pEC50, item Nc1nc2c(ncn2COCCO)c(=O)[nH]1 5.43

###

Reported values of CC50 for individual entries
# assay.text: in vitro
# condition.parameters: human

Requested read-out: CC50. Entry: O=C(NC1C=CC(O)C1)c1cccnc1 (centres unmarked) [Compound 13b] > 300 µM

Record: O=C(NC1C=CC(O)C1)c1ccncc1 (centres unmarked) [Compound 13c] > 300 µM

###

# assay.text: in vitro
# condition.parameters: human
measurement.type: CC50

O=C(NC1C=CC(O)CC1)c1cccnc1 (stereo not shown) [Compound 14b, N-(4-Hydroxycyclohex-2-enyl)nicotinamide] : > 20 µM
O=C(NC1C=CC(O)CC1)c1ccc2ccccc2n1 (stereo not shown) [Compound 14d] : > 20 µM
O=C(NC1C=CC(O)CC1)c1ccccn1 (stereo not shown) [Compound 14a, N-(4-Hydroxycyclohex-2-enyl)picolinamide] : > 20 µM

Alright, here's another compound for you.
Requested read-out: CC50. Entry: O=C(NC1C=CC(O)CC1)c1ccncc1 (stereo not shown) [Compound 14c] > 100 µM

###

# Test system: hepatitis B virus (HBV)
# assay.text: Antiviral test against HBV in HepG 2.2.2.15 cells
# Format: cell-based, strain ayw1
# Design: unit not given beside the values
# condition.parameters: HBV, HepG 2.2.2.15 cells
measurement.type: SI50

The examples below pair each entry with its known result.
O=C(NC1C=CC(O)CC1)c1ccccn1 (centres unmarked) [Compound 14a, N-(4-Hydroxycyclohex-2-enyl)picolinamide] : 1
O=C(NC1C=CC(O)CC1)c1cccnc1 (centres unmarked) [Compound 14b, N-(4-Hydroxycyclohex-2-enyl)nicotinamide] : 1
O=C(NC1C=CC(O)CC1)c1ccncc1 (centres unmarked) [Compound 14c] : 1

Requested read-out: SI50. Entry: O=C(NC1C=CC(O)CC1)c1ccc2ccccc2n1 (centres unmarked) [Compound 14d] 1

Record: Nc1ccn(C[C@@H](CO)OCP(=O)(O)O)c(=O)n1 [cidofovir] > 1
